Each entry below carries its measured GI50, system: SW620.

Some solved cases for reference:
CCCCCCCCc1ccc(NS(=O)(=O)NC2(CC(=O)O)CCCN(C)C2)cc1 (stereo not drawn) [Example S15, 2,2,2-trifluoroacetate] ... 27 µM
CCCCCCCCc1ccc(NC(=O)NC2(CC(=O)O)C[N+](C)(C)C2)cc1 [Example S24, 2,2,2-trifluoroacetate] ... 44 µM
CCCCCCCCc1ccc(NC(=O)NC2(CC(=O)O)CCC[N+](C)(C)C2)cc1 (stereo not drawn) [Example S10, 2,2,2-trifluoroacetate] ... 2.5 µM
CCCCCCCCc1ccc(NS(=O)(=O)NC2(CC(=O)O)CC[N+](C)(C)CC2)cc1 [Example S8, 2,2,2-trifluoroacetate] ... 8.4 µM
CCCCCCCCc1ccc(NS(=O)(=O)NC2(CC(=O)O)CCN(C)CC2)cc1 [Example S7, 2,2,2-trifluoroacetate] ... > 50 µM
CCCCCc1ccc(S(=O)(=O)NC2(CC(=O)O)CC[N+](C)(C)CC2)cc1 [Example S4, 2,2,2-trifluoroacetate] ... > 50 µM
CCCCCCCCc1ccc(NS(=O)(=O)NC2(CC(=O)O)CCC[N+](C)(C)C2)cc1 (stereo not drawn) [Example S16, 2,2,2-trifluoroacetate] ... 20 µM
CCCCCCCCc1ccc(NC(=O)NC2(CC(=O)O)CC[N+](C)(C)CC2)cc1 [Example S2, 2,2,2-trifluoroacetate] ... 2 µM
CCCCCCCCc1ccc(NC(=O)NC2(CC(=O)O)CC[N+](C)(C)C2)cc1 (stereo not drawn) [Example S18, 2,2,2-trifluoroacetate] ... 3.1 µM
CCCCCc1ccc(S(=O)(=O)NC2(CC(=O)O)C[N+](C)(C)C2)cc1 [Example S29, 2,2,2-trifluoroacetate] ... > 77 µM

Provide GI50 for all items below, preserving their order.
1. CCCCCCCCc1ccc(N(C)S(=O)(=O)NC2(CC(=O)O)CCC[N+](C)(C)C2)cc1 (stereo not drawn)
2. CCCCCCCCc1ccc(NC(=O)NC2(CC(=O)O)CNC2)cc1 [Example S23, 2,2,2-trifluoroacetate]

3.5 µM
43 µM

###

Would you mind telling me the reported Percentage of Growth Inhibition of each entry?
- Tested on: SW620
- protocol-description: Cancer cell growth inhibition, SRB assay
- Assay type: cell-based, human
- Design: scale not given here
- assay-context: SW620; at 10 μM; SRB at Day 6; NE = no activity at 10 micromolar

CCCCCCCCc1ccc(NC(=O)NC2(CC(=O)O)CCN(C)CC2)cc1 [Example S1, 2,2,2-trifluoroacetate] ... 0.04345%
C[N+]1(C)CCCC(CC(=O)O)(NC(=O)c2ccc(CCc3ccccc3)o2)C1 (stereo not shown) [Example S14, 2,2,2-trifluoroacetate] ... 0.04122%
C[N+]1(C)CCC(CC(=O)O)(NC(=O)c2ccc(CCc3ccccc3)o2)CC1 [Example S5, 2,2,2-trifluoroacetate] ... 0.05572%
O=C(O)CC1(NC(=O)c2ccc(C#Cc3ccccc3)o2)CNC1 [Example S26, 2,2,2-trifluoroacetate] ... 0.0551%

Count: 6. Required value per item: Percentage of Growth Inhibition.
1. C[N+]1(C)CCC(CC(=O)O)(NC(=O)c2ccc(C#Cc3ccccc3)o2)CC1 [Example S6, 2,2,2-trifluoroacetate]
2. CCCCCCCCCCc1ccc(C(=O)NC2(CC(=O)O)CCN(C)C2)cc1 (stereo not shown) [Example S21, 2,2,2-trifluoroacetate]
3. CCCCCc1ccc(S(=O)(=O)NC2(CC(=O)O)CCN(C)CC2)cc1 [Example S3, 2,2,2-trifluoroacetate]
4. CCCCCc1ccc(S(=O)(=O)NC2(CC(=O)O)CC[N+](C)(C)C2)cc1 (stereo not shown) [Example S20, 2,2,2-trifluoroacetate]
5. CCCCCCCCc1ccc(NC(=O)NC2(CC(=O)O)CCC[NH+](C)C2)cc1 (stereo not shown) [Example S9, 2,2,2-trifluoroacetate]
6. CCCCCCCCCCc1ccc(C(=O)NC2(CC(=O)O)CC[N+](C)(C)C2)cc1 (stereo not shown) [Example S22, 2,2,2-trifluoroacetate]

0.05805%
0.07327%
0.03948%
0.01263%
0.04904%
0.2089%

The measured values listed here are drawn from patent US8680282B2.
